# procedure.summary: UVA/UVB ratio from absorption spectra (Eq. 3) and Boots UVA Star Rating
# Type: physicochemical
# stated.conditions: chemical UV filter 5% in sun protective solution
measurement.name: UVA/UVB

CCCCCCCCCCCCc1cc(C)cc(-n2nc3ccccc3n2)c1O = 0.62
CCCCC(CC)COC(=O)c1ccc(Nc2nc(Nc3ccc(C(=O)OCC(CC)CCCC)cc3)nc(Nc3ccc(C(=O)OCC(CC)CCCC)cc3)n2)cc1 (stereo not shown) = 0.21

Challenge: Sample CCCCC(CC)COC(=O)C(C#N)=C(c1ccccc1)c1ccccc1 (stereo not shown) — what was its UVA/UVB?
Response given: 0.22

Challenge: Now consider CCCCC(CC)COc1ccc(-c2nc(-c3ccc(OC)cc3)nc(-c3ccc(OCC(CC)CCCC)cc3O)n2)c(O)c1 (stereo not shown) .
Response given: 0.50

###

# procedure.summary: UVA/UVB ratio from absorption spectra (Eq. 3) and Boots UVA Star Rating
# Format: physicochemical
# stated.conditions: chemical UV filter 0.5% in sun protective solution
measurement.name: UVA/UVB
API doc: respond with a numeric literal and nothing else, no unit.

Illustrative cases are given below, each with its answer.
CCCCC(CC)COc1ccc(-c2nc(-c3ccc(OC)cc3)nc(-c3ccc(OCC(CC)CCCC)cc3O)n2)c(O)c1 (stereo not shown) = 0.50
CCCCC(CC)COC(=O)c1ccc(Nc2nc(Nc3ccc(C(=O)OCC(CC)CCCC)cc3)nc(Nc3ccc(C(=O)OCC(CC)CCCC)cc3)n2)cc1 (stereo not shown) = 0.21
CCCCCCCCCCCCc1cc(C)cc(-n2nc3ccccc3n2)c1O = 0.62

# context switch: different compound, same UVA/UVB
Challenge: Sample CCCCC(CC)COC(=O)C(C#N)=C(c1ccccc1)c1ccccc1 (stereo not shown) — what was its UVA/UVB?
Response given: 0.22

###

# procedure.summary: Critical wavelength (λC) from absorption spectra (Eq. 2)
# Assay type: physicochemical
# stated.conditions: chemical UV filter 5% in sun protective solution
Below, each entry is listed with its recorded Critical wavelength (λC).
Numbers only; they are read as nm.

Illustrative cases are given below, each with its answer.
CCCCC(CC)COC(=O)c1ccc(Nc2nc(Nc3ccc(C(=O)OCC(CC)CCCC)cc3)nc(Nc3ccc(C(=O)OCC(CC)CCCC)cc3)n2)cc1 (centres unmarked) = 341
CCCCC(CC)COc1ccc(-c2nc(-c3ccc(OC)cc3)nc(-c3ccc(OCC(CC)CCCC)cc3O)n2)c(O)c1 (centres unmarked) = 365
CCCCCCCCCCCCc1cc(C)cc(-n2nc3ccccc3n2)c1O = 363

Challenge: Sample CCCCC(CC)COC(=O)c1ccc(Nc2nc(Nc3ccc(C(=O)NC(C)(C)C)cc3)nc(Nc3ccc(C(=O)OCC(CC)CCCC)cc3)n2)cc1 (centres unmarked) — what was its Critical wavelength (λC)?
Response given: 337

Challenge: Now consider CCCCC(CC)COC(=O)C(C#N)=C(c1ccccc1)c1ccccc1 (centres unmarked) .
Response given: 342

###

# procedure.summary: UVA/UVB ratio from absorption spectra (Eq. 3) and Boots UVA Star Rating
# Type: physicochemical
# stated.conditions: chemical UV filter 10% in sun protective solution
Below, each entry is listed with its recorded UVA/UVB.

Illustrative cases are given below, each with its answer.
CCCCC(CC)COC(=O)C(C#N)=C(c1ccccc1)c1ccccc1 (stereo not shown) = 0.22
CCCCC(CC)COC(=O)c1ccc(Nc2nc(Nc3ccc(C(=O)OCC(CC)CCCC)cc3)nc(Nc3ccc(C(=O)OCC(CC)CCCC)cc3)n2)cc1 (stereo not shown) = 0.21
CCCCCCCCCCCCc1cc(C)cc(-n2nc3ccccc3n2)c1O = 0.62

# context switch: different compound, same UVA/UVB
Challenge: Sample CCCCC(CC)COc1ccc(-c2nc(-c3ccc(OC)cc3)nc(-c3ccc(OCC(CC)CCCC)cc3O)n2)c(O)c1 (stereo not shown) — what was its UVA/UVB?
Response given: 0.50

Recorded values, source patent US20250032569A1.
